assay: amyloid nucleation score (Sup35N fusion, yeast selection) (log enrichment); library NNK2; higher = more nucleation; inactive = no reads after selection;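 further: zero at mode of non-aggregating sequences after 7 days selection at 30°C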
Think of 3 as a floor: if amyloid nucleation score stands on it or above, it is 1; beneath it, 0.

Request: Determine whether this substance has amyloid nucleation score no lower than 3: "EVHLEVLTNCKKV"
Response: 1

Request: In plain terms: is recorded amyloid nucleation score at least 3 for "MPTIRNWVCW" ?
Response: 0

Request: Tell me whether amyloid nucleation score is at least 3 here: "TGLVMVHSTRVPKRLGMLCL"
Response: 0

Request: Reported amyloid nucleation score at or above 3? "RSFSSPRIILYVKLLVSLYG"
Response: 0

Request: Form field: amyloid nucleation score at least 3? Entry: "FIDDSDFKYSYSAQFVCLID"
Response: 1

Request: Given the entry "LFYKVFAYLFFVDVVCASKG" , answer whether its amyloid nucleation score meets or surpasses 3.
Response: 1

Request: Record "DVLWTLQLLFDPVGLCLAMK" ; criterion: amyloid nucleation score no lower than 3. Met?
Response: 0

Request: Is reported amyloid nucleation score greater than or equal to 3 here: "CLAISWEGWSNSFGRYVVGW"
Response: 0

Request: Please check the record "LVTEVEFMSTAAGKECYCNI" and state if its amyloid nucleation score is at or above 3.
Response: 0

Request: I'd appreciate it if you could say whether "EVLARR" has amyloid nucleation score at least equal to 3.
Response: 0

Request: Hi team, for "MIHYRWTHYNTRIGGYRYWE" , is the recorded amyloid nucleation score at or above 3?
Response: 1

Request: Determine whether measured amyloid nucleation score meets or exceeds 3 for "NLCTVVCSDTAVLWTALPRL"
Response: 1

Request: API: above_or_equal(metric=amyloid nucleation score, cutoff=3) for item "WLQSETIHDVRSLRWVSIKC"
Response: 0

Request: Quick check, amyloid nucleation score >= 3? "FHGAYIGASSVNDPSVSD"
Response: 1

Request: I'd appreciate it if you could say whether "QWMRSWNDTGRAES" has amyloid nucleation score at least equal to 3.
Response: 0

Request: State whether the measured amyloid nucleation score reaches 3, counting equality as reaching it, for "EDRVCAYLNRKYCRYLGHSM"
Response: 0
